Exercise: for every item that follows, state its recorded GI50.
- System: A549 NSCLC
- Test description: NCI tumour cell line growth inhibition, 48 h

Compound | Target or system | Reported value
C[n+]1c2cc(N)ccc2cc2ccc(N)cc21 | A549 NSCLC | 256 nM [middle of 4 runs]

Here are 6 compounds. What values of GI50 were reported for them?
1. C[C@@]12CCC[C@@](C)(C(=O)O)C1CC[C@]13C[C@@](O)(CO)[C@](O)(CCC12)C3 (some centres undefined)
2. S=C(Nc1ccc(-c2nc3ccccc3[nH]2)cc1)Nc1ccc(-c2nc3ccccc3[nH]2)cc1
3. CCN(CC)CC(O)CNc1c2ccc([N+](=O)[O-])cc2nc2cc(OC)c(OC)cc12 (centres undefined)
4. Cc1nnc(-c2cccc(-c3ccc(C(=O)NCC4CC4)cc3)c2)o1
5. CCN(CC)CCCNCc1cc(-c2ccccc2)nc2ccccc12
6. CN(Cc1ccccc1)c1ccc(CO)c(Cl)c1

[out]
["> 100 µM", "> 100 µM", "0.262 µM", "> 25 µM", "81.6 µM", "4.74 µM"]

Here are 6 compounds. What values of GI50 were reported for them?
1. CCN(CC)c1ccc(C(O)C2=CC(=O)c3ccccc3C2=O)cc1 (centres undefined)
2. CC(C)=CCC[C@](C)(O)[C@H]1CC[C@]2(C)[C@@H]1CC[C@@H]1[C@@]3(C)CC/C(=N/O)C(C)(C)[C@@H]3CC[C@]12C
3. O=C(COc1cc(O)c2c(=O)cc(-c3ccccc3)oc2c1)Nc1ccccc1C(F)(F)F
4. C#CCSc1cc(Cl)c(C)cc1S(=O)(=O)Nc1nc2ccccc2o1
5. COc1cc(C(=O)N2CCN(c3ncnc4ccccc34)CC2)c(N)cc1OCc1ccccc1
6. Nc1c(C(=O)Nc2cccc(F)c2)sc2nc3c(cc12)C(=O)CCC3

[out]
4.4 µM
5.86 µM
1.71 µM
31.8 µM
16.5 µM
0.378 µM

Here are 5 compounds. What values of GI50 were reported for them?
1. CC(=O)c1c(C)[nH]c(-c2nc3ccc(N4CCN(C)CC4)cc3[nH]2)c1-c1ccc(N(C)C)cc1
2. C#Cc1c(/C=C/C(=O)OCC)ccc2ccccc12
3. c1ccc(CN2COc3c(ccc4c3OCN(Cc3ccccc3)C4)C2)cc1
4. COc1cc(NCCCN=C(N)NC(N)=NC(C)C)c2ncccc2c1
5. O=C(NCCCO)c1cc(Cl)ccc1O

[out]
1: 1.04 µM; 2: 30.4 µM; 3: 0.477 µM; 4: 56.7 µM; 5: 3.24 µM

[in] Look up GI50 of Cc1csc(/C=C/C(=O)c2nnn(-c3ccnc4c(C(F)(F)F)cccc34)c2C)c1 and report it.
[out] 39.7 µM

* * *

- System: SK-MEL-5 melanoma
- Test description: NCI tumour cell line growth inhibition, 48 h; in the data active means GI50 below about 0.43 µM; inactive means the rest
Answer with one of the outcomes given here: t (active), f (inactive)

[in] Field: outcome | Entry: COCc1cc(C(=O)Nc2cc([C@H]3CC[C@@H](OC(=O)NC(C)C)C3)[nH]n2)n(C)n1
[out] f

[in] Field: outcome | Entry: C#Cc1c(/C=C/C(=O)OCC)ccc2ccccc12
[out] f

[in] Field: outcome | Entry: Cn1c2c(c3ccc([N+](=O)[O-])cc3c1=O)C(=O)c1ccccc1-2
[out] f

[in] Field: outcome | Entry: CCN(CC)CCCNCc1cc(-c2ccccc2)nc2ccccc12
[out] f

[in] Field: outcome | Entry: Nc1c(C(=O)Nc2cccc(F)c2)sc2nc3c(cc12)C(=O)CCC3
[out] t

[in] Field: outcome | Entry: c1ccc(CN2COc3c(ccc4c3OCN(Cc3ccccc3)C4)C2)cc1
[out] f

[in] Field: outcome | Entry: COC(=O)c1cc(O)c2cc3c(cc2c1-c1cc(OC)c(OC)c(OC)c1)OCO3
[out] f

[in] Field: outcome | Entry: CC(=O)c1c(C)[nH]c(-c2nc3ccc(N4CCN(C)CC4)cc3[nH]2)c1-c1ccc(N(C)C)cc1
[out] f

[in] Field: outcome | Entry: O=Nc1ccc(NO)c2ccccc12
[out] f

[in] Field: outcome | Entry: Cc1nc2ccccc2c(/C=C/c2ccc(Cl)cc2)c1C(=O)/C=C/c1ccc(C(F)(F)F)cc1
[out] f

[in] Field: outcome | Entry: CC(C)([NH-])CO.CC(C)([NH-])CO.[Cl][Cd][Cl]
[out] f

* * *

# collection of GI50 values tested on U251 CNS

Smi | Target or system | GI50
CCC(=C/[C@H](C)C/C=C/C(C)=C/[C@@H](C)C(=O)[C@@H](C)[C@H](O)[C@@H](C)CC)/C=C/[C@@H]1OC(=O)C=C[C@H]1C | U251 CNS | < 0.01 µM

Here are 3 molecules. What values of GI50 were reported for them?
1. C#Cc1c(/C=C/C(=O)OCC)ccc2ccccc12
2. O=C(COc1cc(O)c2c(=O)cc(-c3ccccc3)oc2c1)Nc1ccccc1C(F)(F)F
3. O=C1C=CC(=Nc2cc(Br)c(O)c(Br)c2)C=C1

[out]
1. 11.2 µM
2. 2.01 µM
3. 17.8 µM

* * *

Exercise: for every item that follows, state its recorded TGI.
- System: OVCAR-8 ovarian
- Test description: NCI tumour cell line growth inhibition, 48 h

Molecule | Target or system | TGI
CC(C)N=C(N)NC#N | OVCAR-8 ovarian | > 100 µM
COc1cc(-c2cc(=O)c3c(O)c(CC=C(C)C)c(O)cc3o2)ccc1O | OVCAR-8 ovarian | > 50 µM
COc1cc(/C=N/n2c(-c3ccccc3)nn(C(C)=O)c2=O)cc(OC)c1OC | OVCAR-8 ovarian | > 82.2 µM

Please examine the following record next.
[in] Look up TGI of NCC1OC(n2cnc3c(N)ncnc32)CC1O (centres undefined) and report it.
[out] > 100 µM

* * *

Exercise: for every item that follows, state its recorded TGI.
- Tested on: SW-620 colon
- Test description: NCI tumour cell line growth inhibition, 48 h

Example results:
Molecule | TGI
CC(C)([NH-])CO.CC(C)([NH-])CO.[Cl][Cd][Cl] | 38.9 µM
COC1CN(C)C(=Nc2cccc3ccccc23)S1 (configuration not stated) | > 10 µM
CC(C)N=C(N)NC#N | > 100 µM
Nc1nc2ncc(CNc3ccc(C(=O)NC(CCC(=O)O)C(=O)O)cc3)nc2c(=O)[nH]1 (configuration not stated) | > 100 µM
O=c1[nH]nc(Cc2c[nH]c3ccccc23)o1 | > 100 µM

Here are 2 molecules. What values of TGI were reported for them?
1. CCN(CC)c1ccc(C(O)C2=CC(=O)c3ccccc3C2=O)cc1 (configuration not stated)
2. Nc1nc2c(ncn2C2C=CC(CO)C2)c(=O)[nH]1 (configuration not stated)

[out]
1. > 100 µM
2. > 100 µM

* * *

- Tested on: SNB-19 CNS
- Test description: NCI tumour cell line growth inhibition, 48 h
Readout name: TGI

Compound | Reported value
Cn1cnc([N+](=O)[O-])c1Sc1nc(N)nc2c1ncn2C1CC(O)C(CO)O1 (stereo unspecified) | > 100 µM
CN1C(=O)C2C3C=C4c5ccccc5N(c5ccccc5)C4(C2C1=O)[C@H]1C(=O)N(C)C(=O)[C@@H]31 (stereo partly specified) | > 100 µM
COc1ccc(N2C(=O)C3c4[nH]c5ccc(Br)cc5c4C4CCC(C(C)(C)C)CC4C3C2=O)cc1 (stereo unspecified) | > 100 µM
C[C@]12CC/C(=N\O)C=C1CC[C@@H]1C2CC[C@@]2(C)C1CC[C@@H]2OC1CCCCO1 (stereo partly specified) | 33.1 µM
CC1=C(O)C(=O)C2C(=O)C1C1Cc3ccccc3C21 (stereo unspecified) | > 100 µM
CCOC(=O)N1CCC(=O)C(CNC23CC4CC(CC(C4)C2)C3)C1 (stereo unspecified) | > 100 µM
C#Cc1c(/C=C/C(=O)OCC)ccc2ccccc12 | > 100 µM
O=C(O)CCC(N=Cc1nc(-c2ccccc2)oc1O)C(=O)O (stereo unspecified) | > 100 µM
COC1CN(C)C(=Nc2cccc3ccccc23)S1 (stereo unspecified) | > 10 µM
Cc1ccc(NC(=O)CC2Sc3ccccc3NC2=O)c(C)c1 (stereo unspecified) | 30.3 µM

Here are 4 compounds. What values of TGI were reported for them?
1. CC1=C(c2ccccc2)NC(=S)C(C)C(c2ccccc2)=N1 (stereo unspecified)
2. Cc1cc(/C=C/c2cc[n+](C)c3ccccc23)c(O)c2ncccc12
3. CC(C)=CC(Cc1ccccc1)S(=O)(=O)c1nc2ccccc2s1 (stereo unspecified)
4. CC(Nc1ccc(S(=O)(=O)N=C(N)N)cc1)c1c2ccccc2nc2ccccc12 (stereo unspecified)

[out]
1: > 100 µM; 2: 20.8 µM; 3: 32 µM; 4: > 100 µM

Here are 3 compounds. What values of TGI were reported for them?
1. COc1ccc(CCCNC(=O)c2cc(OC)c(OC)cc2CCO)cc1OC
2. COCc1cc(C(=O)Nc2cc([C@H]3CC[C@@H](OC(=O)NC(C)C)C3)[nH]n2)n(C)n1
3. CC(C)=CCC[C@](C)(O)[C@H]1CC[C@]2(C)[C@@H]1CC[C@@H]1[C@@]3(C)CC/C(=N/O)C(C)(C)[C@@H]3CC[C@]12C

[out]
1: > 100 µM; 2: > 100 µM; 3: > 100 µM

Here are 4 compounds. What values of TGI were reported for them?
1. COC(=O)C(C(=O)OC)C1CCCC(=O)C1 (stereo unspecified)
2. COc1ccc(Cc2nnc(Nc3ccc(Br)cc3)[nH]c2=O)cc1OC
3. CC(C)(C)c1cc(-n2c(-c3ccc(Cl)cc3)nc3cc(C(=O)Nc4ccc(Cl)cc4)ccc32)n[nH]1
4. COc1cc(N(C)C)c(OC)cc1/C=C\c1ccnc2ccccc12

[out]
1. > 100 µM
2. > 100 µM
3. > 100 µM
4. > 10 µM
